Data provenance: ChEMBL document CHEMBL1275440

Tested on: Streptococcus pneumoniae
protocol_notes: Antibacterial activity against multidrug-resistant Streptococcus pneumoniae clinical isolate by broth microdilution method
Type: functional
quantity_kind: MIC50

CC1(C)S[C@@H]2[C@H](NC(=O)Cc3ccccc3)C(=O)N2[C@H]1C(=O)O [PENICILLIN G] | 2 µg/mL
CO/N=C(\C(=O)N[C@@H]1C(=O)N2C(C(=O)O)=C(COC(N)=O)CS[C@H]12)c1ccco1 [CEFUROXIME] | > 4 µg/mL

With those in mind, consider the next compound.
Ask: Tell us which MIC50 value is on record for C[C@H]1COc2c(N3CCN(C)CC3)c(F)cc3c(=O)c(C(=O)O)cn1c23.C[C@H]1COc2c(N3CCN(C)CC3)c(F)cc3c(=O)c(C(=O)O)cn1c23.O [LEVOFLOXACIN]
Reply: 0.5 µg/mL
